# target.entity: cynomolgus monkey CD300LB transiently expressed on HEK293 cells (cynomolgus monkey)
# Sequence (chain, as listed by the source limits assumed, form in doubt): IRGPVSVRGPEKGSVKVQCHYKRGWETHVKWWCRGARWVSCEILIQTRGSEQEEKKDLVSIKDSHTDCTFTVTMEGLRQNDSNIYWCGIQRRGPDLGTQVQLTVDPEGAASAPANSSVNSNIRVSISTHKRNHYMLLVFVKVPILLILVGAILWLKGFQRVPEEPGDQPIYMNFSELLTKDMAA
# assay.comment: flow cytometry, transfected HEK293, 10 ug/mL, isotype subtracted
For each record, check the reported gMFI: if it is below 40 gMFI write yes (1), else write no (0).

| binder | class |
| --- | --- |
| anti-CD300LB antibody CD-06 (antibody, V domains shown) VH: QVQLVQSGAEVKKPGASVKVSCKASGYTFTTYAVHWVRQAPGQGLEWMGIVNPNSGGTNYAQKFQGRVTMTRDTSTSTVYMELSSLRSEDTAVYYCARDIVPMNNFYNYYYGMDVWGQGTTVTVSS VL: DIQMTQSPSSLSASVGDRVTITCRASQSISSYLNWYQQKPGKAPKLLIYATSTLQSGVPSRFSGSGSGTDFTLTISSLQPEDFATYYCQQSYRIPYTFGQGTKVEIK | yes (1) |
| anti-CD300LB antibody CD-05 (antibody, V domains shown) VH: QVQLVQSGAEVKKPGASVKVSCKASGYTFSRYYINWVRQAPGQGLEWMGWINPNSGGTNYAQKFQGRVTMTRDTSTSTVYMELSSLRSEDTAVYYCTTDQLRFGKTGPYYGMDVWGQGTTVTVSS VL: DIQMTQSPSSLSASVGDRVTITCRASQNIGTYLNWYQQKPGKAPKLLIYAASSLQSGVPSRFSGSGSGTDFTLTISSLQPEDFATYYCQQSYSDTLTFGGGTKVEIK | yes (1) |
| anti-CD300LB antibody CD-09 (antibody, V domains shown) VH: QVQLVQSGAEVKKPGASVKVSCKASGYTFTTYAVHWVRQAPGQGLEWMGIINPNSGGTNYAQKFQGRVTMTRDTSTSTVYMELSSLRSEDTAVYYCARDIVPMNNFYNYYYGMDVWGQGTTVTVSS VL: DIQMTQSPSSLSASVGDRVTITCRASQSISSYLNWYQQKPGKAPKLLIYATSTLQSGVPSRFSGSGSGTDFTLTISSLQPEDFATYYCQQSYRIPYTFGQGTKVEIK | yes (1) |
| anti-CD300LB antibody CD-04 (antibody, V domains shown) VH: QVQLQQSGAELVRPGASVTLSCRASGYTFTDFEMHWVKQTPLHGLEWIGAIAPETGGTAYNQKFKGKAILTADKSSSTAYVELRSLTSEDSAVYFCTRLGGMDYWGQGTSVTVSS VL: DVVMTQTPLSLPVSLGDQASISCRSSQTLVHNNGNTYLYWYLQKPGQSPKLLIYQVSNRFFGVPDRFSGSGSGTDFTLKISRVEAEDLGLYFCSQSTHVPWTFGGGTKLEIK | no (0) |
| anti-CD300LB antibody CD-01 (antibody, V domains shown) VH: RVQLQQSGAELVRPGASVTLSCKASGFTFTDFEMHWVKKTPVHGLEWIGAIDPESGNTAYNQKFRGKATLTADKSSSTAYMELRYLTSEDSAVYYCTPLISGADYWGQGTTLTVSS VL: DVVMTQSPLSLPVSLGDQASISCRSSQSLVHSDGNTYLYWYLQKPGQSPKLLIYKVSNRFSGVPDRFSGSGSGTDFTFKISRVGAEDLGVYFCSQSTHVPWTFGGGTKLEII | no (0) |
| anti-CD300LB antibody CD-08 (antibody, V domains shown) VH: EVQLLESGGGLVQPGGSLRLSCAASGFTFSNAWMSWVRQAPGKGLEWVSVISGSGGRTYYADSVKGRFTISRDNSKNTLYLQMNSLRAEDTAVYYCARDGTTVAPKGMDVWGQGTTVTVSS VL: DIQMTQSPSSLSASVGDRVTITCQASQDINNYVNWYQQKPGKAPKLLIYAASNLQSGVPSRFSGSGSGTDFTLTISSLQPEDFATYYCQQSYSPPYTFGQGTKLEIK | yes (1) |
